Experiment: yeast display, Sf9 membrane polyspecificity reagent, FACS + sequencing; frameworks hold sequencing errors

{"SEQ STRING": "QVQLVESGGGLVQAGGSLSLSCAASGRLFKIDAMGWYRQAPGKERELVATISSGGRTNYADSVKGRFTISRDNAKNSVYLQMNSLKPEVTAVYYCNAGARVLYETESFDYWGQGIQVTVSS", "polyreactivity (PSR sort gate)": "low polyreactivity"}
{"SEQ STRING": "QVQLVESGGGLVQAGGSLRLSCAASGIFSRYAIGWYRQAPGKERELVAAISSGDSTNYADSVKGRFTISRDNAKNTVYLQMNSLKPEDTAVYYCATERSHLATGQGYYYVQTFYYWGQGTQVTVSS", "polyreactivity (PSR sort gate)": "low polyreactivity"}
{"SEQ STRING": "QVQLVESGGGLVQAGGSLRLSCAASGSTFDYYAMGWYRQAPGKERELVAAITSTGSTYYADSVKGRFTISRDNAKNTVYLQMNSLKPEDTAVYYCAADDIYKYYQYYAFPYYRYDYWGQGTQVTVSS", "polyreactivity (PSR sort gate)": "low polyreactivity"}
{"SEQ STRING": "QVQLVESGGGLVEAGGSLRLTCAAYGSIFSAYAMGWYRAAPGKERELVAAITRGTSTNYADSVKGRFTISRDNAKNTVYLQMNSLKPEDTAVYYCAVGYNSKLAVGMYYWGLGTQVTVSS", "polyreactivity (PSR sort gate)": "low polyreactivity"}
